So I've got a bunch of molecules here, and I need their pEC50 values.
# TESTED SYSTEM: EP2 (Homo sapiens, UniProt P43116)
# Sequence (P43116 whole entry): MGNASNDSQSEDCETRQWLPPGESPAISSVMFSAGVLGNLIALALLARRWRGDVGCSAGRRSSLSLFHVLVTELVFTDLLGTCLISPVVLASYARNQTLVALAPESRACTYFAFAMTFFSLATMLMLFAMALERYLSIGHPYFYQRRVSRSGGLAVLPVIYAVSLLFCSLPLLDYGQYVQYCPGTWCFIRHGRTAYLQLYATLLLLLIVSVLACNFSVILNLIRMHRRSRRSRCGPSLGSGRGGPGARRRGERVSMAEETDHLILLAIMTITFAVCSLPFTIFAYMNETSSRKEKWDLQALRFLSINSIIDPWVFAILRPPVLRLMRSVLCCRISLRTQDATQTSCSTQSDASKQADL
# ASSAY OVERVIEW: cAMP assay, EP2
# CONDITION DESCRIPTION: HEK-EBNA cells expressing EP2
Convention used: pEC50 is expressed as -log10 of the molar concentration.

Enquiry: GET /values?readout=pEC50&item= COc1cc(CC2CCCCC2C(=O)NCc2ccc(C(=O)O)cc2)cc(OC)c1 (single isomer, unassigned) [Example 9]
Return: 6.41

Enquiry: GET /values?readout=pEC50&item= "COc1cc(CC2=C(C(=O)NCc3ccc(C(=O)O)cc3)CCCC2)cc(OC)c1"
Return: 8.70

Enquiry: GET /values?readout=pEC50&item= COc1cc(CC2CCCCCC2C(=O)NCc2ccc(C(=O)O)cc2)cc(OC)c1 (single isomer, unassigned) [Example 12]
Return: 5.88

Enquiry: GET /values?readout=pEC50&item= COc1cc(CC2CCCCC2C(=O)NCc2ccc(C(=O)O)cc2)cc(OC)c1 (single isomer, unassigned) [Example 10]
Return: 7.60

Enquiry: GET /values?readout=pEC50&item= O=C(O)c1ccc(CNC(=O)C2CCCC2Cc2cccc(C(F)(F)F)c2)cc1 (single isomer, unassigned) [Example 6]
Return: 8.00

Enquiry: GET /values?readout=pEC50&item= "COc1cc(CC2=C(C(=O)NCc3ccc(C(=O)O)cc3)CCCCC2)cc(OC)c1"
Return: 7.32

Enquiry: GET /values?readout=pEC50&item= "COc1cc(CC2=C(C(=O)NCc3ccc(C(=O)O)cc3)CCC2)cc(OC)c1"
Return: 7.48

Enquiry: GET /values?readout=pEC50&item= "O=C(NCc1ccc(C(=O)O)cc1)C1=C(Cc2cccc(C(F)(F)F)c2)CCC1"
Return: 8.70

Enquiry: GET /values?readout=pEC50&item= O=C(O)c1ccc(CNC(=O)C2CCCC2Cc2cccc(C(F)(F)F)c2)cc1 (single isomer, unassigned) [Example 5]
Return: 7.89

Enquiry: GET /values?readout=pEC50&item= COc1cc(CC2CCCCCC2C(=O)NCc2ccc(C(=O)O)cc2)cc(OC)c1 (single isomer, unassigned) [Example 13]
Return: 6.24
